For each entry below, report its TGI value.
Tested on: 786-0 renal
TEST_SUMMARY: NCI tumour cell line growth inhibition, 48 h
Where a SMILES comes first, the peptide text is derived from it. Square brackets hold non-standard residues; d marks the D form. Peptide text beside a SMILES is read from it. [ ]: non-standard residue; d: D form. * marks the point of attachment. Boc = CC(C)(C)OC(=O)*; OBn = c1ccc(CO*)cc1

Some molecules with known TGI results, for comparison:
• NC(N)=NCCC[C@H]1NC(=O)[C@@H](CCC(=O)O)NC(=O)[C@@H](CC(=O)O)NC(=O)[C@@H](CCC(=O)O)NC(=O)[C@H](Cc2c[nH]c3ccccc23)NC1=O (cyclo(W[dE][dD][dE][dR])) = > 7.5 µM
• CC#CC(O)(C(=O)OC1CCC2CCC1N2C)C1CCCC1 (stereo not given) = > 100 µM

// input: 3 molecules below; output: TGI for each
1. COc1cc(-c2nccn2-c2ccc3ccccc3c2)cc(OC)c1OC
2. Nc1ncnc2c1ncc(=O)n2C1CC(O)C(CO)O1 (stereo not given)
3. C[C@@H](NC(=O)CNC(=O)OC(C)(C)C)C(=O)N[C@@H](Cc1ccccc1)C(=O)OCc1ccccc1 (Boc-Gly-[dA]-Phe-OBn)

Reply:
["12.5 µM", "> 100 µM", "> 100 µM"]
